Biological target: T1, in-line fusion protein of human IL-36R extracellular domain and IL1RAcP extracellular domain expressed with … (human; mouse, UniProt Q9HB29 20-337; Q9NPH3 21-359, limits assumed)
T1 construct: not shown: mouse IgG2a Fc
T1 sequence (looked up): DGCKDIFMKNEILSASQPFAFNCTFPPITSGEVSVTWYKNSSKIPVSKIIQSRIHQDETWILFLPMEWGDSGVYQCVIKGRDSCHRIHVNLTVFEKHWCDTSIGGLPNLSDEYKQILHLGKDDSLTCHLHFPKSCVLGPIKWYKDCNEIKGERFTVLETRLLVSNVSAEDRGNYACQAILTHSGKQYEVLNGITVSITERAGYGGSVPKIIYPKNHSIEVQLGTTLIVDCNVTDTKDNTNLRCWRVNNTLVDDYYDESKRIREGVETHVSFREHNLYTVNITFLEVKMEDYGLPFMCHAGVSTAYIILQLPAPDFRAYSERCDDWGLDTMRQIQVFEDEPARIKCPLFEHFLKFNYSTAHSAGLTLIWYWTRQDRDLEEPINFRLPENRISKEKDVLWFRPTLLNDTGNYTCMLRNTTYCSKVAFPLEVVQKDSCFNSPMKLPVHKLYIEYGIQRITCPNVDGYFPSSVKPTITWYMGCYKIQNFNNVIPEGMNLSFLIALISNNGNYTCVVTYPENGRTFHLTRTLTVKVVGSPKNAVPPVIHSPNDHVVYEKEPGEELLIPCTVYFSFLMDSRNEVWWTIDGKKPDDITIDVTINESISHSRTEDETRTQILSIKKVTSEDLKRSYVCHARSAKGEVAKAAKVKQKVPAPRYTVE
Assay: SPR Biacore 4000, mAb captured on anti-hFc, 37C
Reported 100 nM hIL-36R-Trap-mFc Bound (RU) values for the following binders.

Look over these answered cases.
binder: H4H14757P (antibody, human IgG4 S228P, kappa, V domains shown, Fully human anti-IL-36R antibody) VH: EVQLVESGGGLVQPGRSLRLSCTASGFTFDDYAMHWVRQAPGKGLEWVSGIRWNGGSIGYVDSVKGRFTISRDNAKKSLHLQMNSLKTEDTALYYCAKDIGDILTGFYGEYGMDVWGQGTTVTVSS VL: DIQMTQSPSSLSASEGDRVTITCRASQSISSYLNWYQQKAGKAPNLLIYAASSLQSGVPSRFSGSGSGTEYTLTISSLQPEDFATYYCQQSYIIPYTFGQGTKLEIKR
100 nM hIL-36R-Trap-mFc Bound (RU): 281 RU
//
binder: H4H14731P (antibody, human IgG4 S228P, kappa, V domains shown, Fully human anti-IL-36R antibody) VH: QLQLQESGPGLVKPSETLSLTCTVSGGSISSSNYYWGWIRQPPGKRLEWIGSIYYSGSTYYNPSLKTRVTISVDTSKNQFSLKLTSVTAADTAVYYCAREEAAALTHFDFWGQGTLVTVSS VL: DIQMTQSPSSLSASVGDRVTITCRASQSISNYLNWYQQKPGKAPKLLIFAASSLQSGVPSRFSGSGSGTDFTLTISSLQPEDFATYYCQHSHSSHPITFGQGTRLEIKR
100 nM hIL-36R-Trap-mFc Bound (RU): 78 RU
//
binder: H4H14709P (antibody, human IgG4 S228P, kappa, V domains shown, Fully human anti-IL-36R antibody) VH: EVQLVESGGGLVQPGGSLRLSCAASGFTFSDYAMSWVRQAPGKGLEWVSGISGNGGDTYYGDFVKGRFTISRDNSKNTLYLQMNSLRGEDTAAYFCVIDLDYWGQGTLVTVSS VL: DIQMTQSPSTLSASEGDRVTITCRASQSISSWLAWYQQKPGKAPRLLIYKASILGDGVPSRFSGSGSGTEFTLTISSLQPDDFATYYCHQYNSYLWTFGQGTKVEIKR
100 nM hIL-36R-Trap-mFc Bound (RU): 257 RU

Please examine the following record next.
Entry H4H14758P (antibody, human IgG4 S228P, kappa, V domains shown, Fully human anti-IL-36R antibody) VH: EVQLVESGGGLVQPGRSLRLSCAASGFTFDDYAMHWVRQAPGKGLEWVSSVRWNGGIIGYADSVKGRFTISRDNAKNSLYLQMNSLRPEDTALYYCAKDIGDVLTGYYGEYGMDVWGQGTTVTVSS VL: DIQMTQSPSSLSASVGDRVTIACRASQSITTYLNWYQQKPGKAPKLLIYAASSLQSGVPSRFSGSGSGTDFTLTISSLQPEDFATYYCQQSYISPYTFGQGTKLEIKR : reported 100 nM hIL-36R-Trap-mFc Bound (RU) = ?
251 RU

Hey, just so you know, these numbers are from patent US20200017592A1.
